# Target under test: MT2 protein (from Sigma)
# Assay name: Surface plasmon resonance (SPR) analysis of peptide binding to immobilized MT2
# Condition summary: 25° C., PBS pH 7.4, immobilized MT2
Metric: Kd
# number then unit; no other words

KKSSCSCSPVGSAK [MTAn] ... 0.367 µM

Now look at this one.
# sequence AQGSICKGASDKSS [MTAcc, tetrameric form used in vivo] ; its Kd = 0.0895 µM
